For each entry below, report its Human P2X4 HEK Cells (FLIPR Assay) avg Efficacy value.
tested.system: human P2X4 (Homo sapiens)
Construct: expressed in transfected cells
Sequence (Q99571 whole entry): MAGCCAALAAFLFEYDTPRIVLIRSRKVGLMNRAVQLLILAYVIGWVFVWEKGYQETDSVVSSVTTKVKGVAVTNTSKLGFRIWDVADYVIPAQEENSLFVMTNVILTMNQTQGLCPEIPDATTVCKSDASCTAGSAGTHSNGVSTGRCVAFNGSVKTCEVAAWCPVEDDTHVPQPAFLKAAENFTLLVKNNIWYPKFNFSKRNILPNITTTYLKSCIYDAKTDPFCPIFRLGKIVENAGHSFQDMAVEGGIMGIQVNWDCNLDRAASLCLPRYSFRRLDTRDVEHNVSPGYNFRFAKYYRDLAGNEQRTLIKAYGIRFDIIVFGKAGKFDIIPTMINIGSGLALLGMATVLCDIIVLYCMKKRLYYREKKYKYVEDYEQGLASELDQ
test.method.notes: Human P2X4 HEK Cell FLIPR Assay
Format: cell-based
details: HEK293 stably expressing human P2X4; agonist Bz-ATP 3 μM (EC80)
Numbers only, in %.

Kindly give each listed record's Human P2X4 HEK Cells (FLIPR Assay) avg Efficacy.
1. CC(=O)N(c1ccc(S(C)(=O)=O)c(Cl)c1)c1cc(NC(=O)Cc2c(F)cccc2Cl)ccn1
2. CC(=O)N(c1cc(NC(=O)Cc2cccc(F)c2Cl)ccn1)c1ccccc1F
3. CC(=O)N(c1ccc(F)cc1)c1cc(NC(=O)Cc2cccc(C)c2C)ccn1
4. CC(=O)N(c1ccc(F)c(F)c1)c1cc(NC(=O)Cc2c(C)cc(C)cc2Cl)ccn1
5. CC(=O)N(c1cccc(F)c1)c1cc(NC(=O)Cc2c(Cl)cccc2Cl)ccn1
6. CC(=O)N(c1cccc(C#N)c1)c1cc(NC(=O)Cc2c(Cl)cccc2Cl)ccn1
7. CC(=O)N(c1ccc(F)cc1)c1cc(NC(=O)Cc2c(F)cc(F)cc2Cl)ccn1

RESULT:
[97, 95, 91, 94, 97, 100, 94]

// recorded Human P2X4 HEK Cells (FLIPR Assay) avg Efficacy for CC(=O)N(c1ccccc1)c1cc(NC(=O)Cc2c(Cl)cccc2Cl)ccn1 : 97

Reference source: patent US20230257351A1
